# Test system: MDR1 (human)
# assay name: Apparent permeability in pig LLC-PK1 cells expressing human MDR1
# Type: ADME, cell-based, Sus scrofa
readout kind: Papp (×10⁻⁶ cm/s)
Note: unit ×10⁻⁶ cm/s is implicit; provide only the numeric part.

CC1(Oc2ccc3[nH]nc(-c4cc(N5CCN(S(C)(=O)=O)CC5)ncn4)c3c2)CC1 = 30
CC(C)Oc1ccc2[nH]nc(-c3ccnc(N4CCN(S(C)(=O)=O)CC4)c3)c2c1 = 29
O=S(=O)(c1ccc2[nH]nc(-c3ccnc(N4CCOCC4)c3)c2c1)C1CC1 = 35
c1ccc2c(-c3ccnc(N4CCOCC4)c3)n[nH]c2c1 = 19
c1cc(-c2n[nH]c3ccc(C4CC4)cc23)cc(N2CCOCC2)n1 = 25

Tested on MDR1 (human): CC(C)Oc1ccc2[nH]nc(-c3ccnc(N4C[C@@H](F)[C@H](F)C4)c3)c2c1 . Observed Papp: 31

Result for c1ccc2c(-c3cncc(N4CCOCC4)c3)n[nH]c2c1 , tested on MDR1 (human), Papp: 38

Entry COc1ccc2[nH]nc(-c3ccnc(N4CCOCC4)c3)c2c1 under MDR1 (human) had Papp of 33

Test item c1cnnc(-c2ccc3[nH]nc(-c4ccnc(N5CCOCC5)c4)c3c2)c1 ; MDR1 (human); reported Papp was 32

Lab entry: MDR1 (human) assay, compound N#Cc1ccc2[nH]nc(-c3ccnc(N4CCOCC4)c3)c2c1 , Papp = 34

MDR1 (human) assay, compound c1cc(-c2n[nH]c3ccc(OC4CC4)cc23)cc(N2CCOCC2)n1 , recorded Papp = 31

###

# assay name: Efflux ratio of permeability […] in pig LLC-PK1 cells expressing human MDR1
# Format: ADME, cell-based, Sus scrofa
readout kind: Ratio
Please state the value as a number alone, without comment.

CC(C)Oc1ccc2[nH]nc(-c3ccnc(N4CCN(S(C)(=O)=O)CC4)c3)c2c1 = 0.4
c1ccc2c(-c3cncc(N4CCOCC4)c3)n[nH]c2c1 = 0.4

// below: Ratio requested for another compound
Entry CC(C)Oc1ccc2[nH]nc(-c3ccnc(N4C[C@@H](F)[C@H](F)C4)c3)c2c1 , Ratio reported as 0.4

###

# system name: Leucine-rich repeat serine/threonine-protein kinase 2 (Homo sapiens, UniProt Q5S007, G2019S)
# Sequence (Q5S007 whole entry G2019S): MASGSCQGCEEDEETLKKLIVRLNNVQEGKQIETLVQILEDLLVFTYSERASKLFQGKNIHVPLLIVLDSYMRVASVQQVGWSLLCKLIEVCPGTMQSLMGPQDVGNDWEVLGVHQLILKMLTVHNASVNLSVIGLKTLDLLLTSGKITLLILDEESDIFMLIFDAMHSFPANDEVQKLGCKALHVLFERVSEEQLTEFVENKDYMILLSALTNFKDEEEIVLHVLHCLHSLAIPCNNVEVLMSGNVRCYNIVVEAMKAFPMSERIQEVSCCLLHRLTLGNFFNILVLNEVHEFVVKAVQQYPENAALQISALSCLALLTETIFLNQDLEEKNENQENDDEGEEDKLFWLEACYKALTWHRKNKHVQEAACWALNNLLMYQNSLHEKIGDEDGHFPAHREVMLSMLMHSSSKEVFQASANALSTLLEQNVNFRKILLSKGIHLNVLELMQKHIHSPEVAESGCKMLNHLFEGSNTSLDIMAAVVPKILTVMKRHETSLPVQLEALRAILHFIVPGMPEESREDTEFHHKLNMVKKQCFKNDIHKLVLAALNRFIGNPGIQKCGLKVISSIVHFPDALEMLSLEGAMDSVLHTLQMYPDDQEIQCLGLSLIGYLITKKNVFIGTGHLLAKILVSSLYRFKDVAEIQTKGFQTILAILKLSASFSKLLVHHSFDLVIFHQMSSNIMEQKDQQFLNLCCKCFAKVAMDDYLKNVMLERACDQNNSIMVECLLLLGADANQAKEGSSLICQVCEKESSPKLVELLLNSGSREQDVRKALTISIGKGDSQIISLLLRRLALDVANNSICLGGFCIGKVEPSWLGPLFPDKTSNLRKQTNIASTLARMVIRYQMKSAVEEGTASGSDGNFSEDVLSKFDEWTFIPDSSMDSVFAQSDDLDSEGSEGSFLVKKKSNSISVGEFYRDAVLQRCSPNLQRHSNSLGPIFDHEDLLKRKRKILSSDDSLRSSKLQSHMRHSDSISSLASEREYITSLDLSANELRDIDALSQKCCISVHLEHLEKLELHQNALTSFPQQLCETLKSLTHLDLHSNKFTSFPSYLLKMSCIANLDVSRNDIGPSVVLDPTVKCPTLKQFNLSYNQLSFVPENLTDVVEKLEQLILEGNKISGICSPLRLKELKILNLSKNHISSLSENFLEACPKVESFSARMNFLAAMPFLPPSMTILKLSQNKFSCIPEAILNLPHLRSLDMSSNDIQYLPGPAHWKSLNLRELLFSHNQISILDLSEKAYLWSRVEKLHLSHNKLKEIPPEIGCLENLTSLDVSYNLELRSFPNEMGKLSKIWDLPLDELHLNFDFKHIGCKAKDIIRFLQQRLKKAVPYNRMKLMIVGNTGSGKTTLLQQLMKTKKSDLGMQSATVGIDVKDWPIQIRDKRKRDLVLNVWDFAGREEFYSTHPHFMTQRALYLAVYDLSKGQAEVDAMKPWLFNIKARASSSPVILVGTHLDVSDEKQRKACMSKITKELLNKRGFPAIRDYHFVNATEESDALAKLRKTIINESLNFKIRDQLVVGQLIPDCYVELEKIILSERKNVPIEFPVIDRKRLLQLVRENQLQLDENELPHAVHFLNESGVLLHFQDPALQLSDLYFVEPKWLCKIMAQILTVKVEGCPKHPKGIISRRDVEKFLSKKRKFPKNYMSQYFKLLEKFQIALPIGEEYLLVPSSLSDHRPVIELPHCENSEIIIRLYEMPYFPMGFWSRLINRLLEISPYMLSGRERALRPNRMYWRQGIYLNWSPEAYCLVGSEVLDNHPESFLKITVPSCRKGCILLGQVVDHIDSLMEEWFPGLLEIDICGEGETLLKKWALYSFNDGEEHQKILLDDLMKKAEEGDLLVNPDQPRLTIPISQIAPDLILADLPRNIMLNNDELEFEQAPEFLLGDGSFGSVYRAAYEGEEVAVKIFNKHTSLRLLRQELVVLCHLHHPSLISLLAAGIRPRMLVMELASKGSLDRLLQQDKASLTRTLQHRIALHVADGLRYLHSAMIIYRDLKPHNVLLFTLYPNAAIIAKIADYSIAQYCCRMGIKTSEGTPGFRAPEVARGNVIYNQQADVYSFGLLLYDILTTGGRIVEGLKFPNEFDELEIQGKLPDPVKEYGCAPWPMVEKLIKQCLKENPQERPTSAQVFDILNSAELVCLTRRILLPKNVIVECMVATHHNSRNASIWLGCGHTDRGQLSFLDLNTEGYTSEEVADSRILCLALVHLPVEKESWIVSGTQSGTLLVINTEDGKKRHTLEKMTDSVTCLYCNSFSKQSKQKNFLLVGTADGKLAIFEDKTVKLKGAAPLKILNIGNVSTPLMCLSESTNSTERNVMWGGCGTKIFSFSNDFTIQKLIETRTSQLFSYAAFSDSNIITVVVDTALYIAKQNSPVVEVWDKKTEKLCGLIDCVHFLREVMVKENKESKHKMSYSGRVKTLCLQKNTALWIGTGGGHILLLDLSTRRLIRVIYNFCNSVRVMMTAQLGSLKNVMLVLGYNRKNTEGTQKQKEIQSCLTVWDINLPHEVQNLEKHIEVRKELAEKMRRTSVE
# assay name: Inhibition LRRK2 G2019S mutant Ser935 phosphorylation in human SH-SY5Y cells after 90 mins by Western blot analysis
# Assay type: cell-based
readout kind: pIC50
Reminder that pIC50 means the negative base-10 logarithm of the concentration expressed in mol/L.

Consider the reported pIC50 for these molecules:
CC(C)Oc1ccc2[nH]nc(-c3ccnc(N4CCN(C)C(=O)C4)c3)c2c1 = 7.23
C[C@H]1CN(c2cc(-c3n[nH]c4ccc(OC5(C)CC5)cc34)ncn2)CCO1 = 8.42

Now for the molecule whose pIC50 we want.
Item: CC(C)Oc1ccc2[nH]nc(-c3cc(N4CCOCC4)ncn3)c2c1 | pIC50: 7.39
